These data points were gathered from the kinase profiling compilation of Christmann-Franck et al. (2016).

- TESTED ON: UniProt:Q9UPE1
- Sequence (Q9UPE1 whole entry, looked up): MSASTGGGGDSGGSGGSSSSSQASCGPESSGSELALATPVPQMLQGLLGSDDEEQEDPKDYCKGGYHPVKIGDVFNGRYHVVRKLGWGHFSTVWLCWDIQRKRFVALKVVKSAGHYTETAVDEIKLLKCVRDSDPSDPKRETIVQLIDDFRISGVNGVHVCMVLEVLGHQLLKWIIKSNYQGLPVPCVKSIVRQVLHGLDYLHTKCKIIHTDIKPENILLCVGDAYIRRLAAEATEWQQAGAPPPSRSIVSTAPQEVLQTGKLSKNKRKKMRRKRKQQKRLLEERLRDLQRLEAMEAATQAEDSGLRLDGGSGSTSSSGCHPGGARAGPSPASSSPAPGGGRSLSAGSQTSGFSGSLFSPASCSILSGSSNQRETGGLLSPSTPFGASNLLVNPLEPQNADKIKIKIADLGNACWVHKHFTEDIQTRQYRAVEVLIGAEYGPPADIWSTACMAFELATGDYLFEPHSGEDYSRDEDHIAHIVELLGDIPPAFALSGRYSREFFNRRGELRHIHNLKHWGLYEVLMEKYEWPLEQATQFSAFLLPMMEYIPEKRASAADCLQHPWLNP
- MEASUREMENT PROTOCOL: KINOMEscan competition binding
- PARTICULARS: compound 10.0 µM
For each of the compounds below, state its kinase still bound, per cent of control.
# include the unit after the value

A selection of reference data follows.
[
  {
    "SMILES STRING": "CN1CCN(c2ccc(C(=O)Nc3ncc4c(n3)N(C)c3ccccc3C(=O)N4C)cc2)CC1",
    "kinase still bound, per cent of control": "100%"
  },
  {
    "SMILES STRING": "CSC1=NC(=O)/C(=C/c2c[nH]c(=O)c(-c3ccc(NS(C)(=O)=O)cc3)c2)S1",
    "kinase still bound, per cent of control": "14%"
  },
  {
    "SMILES STRING": "COc1cc(N2CCN(C)CC2)ccc1Nc1ncc2c(n1)N(C)c1ccccc1N(C)C2=O",
    "kinase still bound, per cent of control": "68%"
  }
]

Provide the reported kinase still bound, per cent of control of each entry below, same order.
1. N=C1NC(=O)/C(=C/c2ccc(-c3cncc4ccccc34)o2)S1
2. COc1cc(N2CCN(C)CC2)ccc1Nc1ncc2c(n1)N(c1ccccc1)CCC(=O)N2
3. CN1C(=O)[C@H]2CCC[C@H]2N(C2CCCC2)c2nc(Nc3ccc(C(N)=O)cc3)ncc21
4. COc1cc(N2CCC(O)CC2)ccc1Nc1ncc2c(n1)N1CCc3cccc(c31)C(=O)N2C
5. O=C1NC(=S)S/C1=C\c1ccc(-c2cncc3ccccc23)o1
6. Nc1cccc(-c2cc(/C=C3\SC(=O)NC3=O)c[nH]c2=O)c1
7. O=C1NC(=S)S/C1=C\c1ccc(-c2cccc3ccccc23)o1

1: 7.2%; 2: 30%; 3: 27%; 4: 89%; 5: 14%; 6: 13%; 7: 33%

---

- TESTED ON: TYRO3 (human) (UniProt Q06418)
- Sequence (Q06418 whole entry, looked up): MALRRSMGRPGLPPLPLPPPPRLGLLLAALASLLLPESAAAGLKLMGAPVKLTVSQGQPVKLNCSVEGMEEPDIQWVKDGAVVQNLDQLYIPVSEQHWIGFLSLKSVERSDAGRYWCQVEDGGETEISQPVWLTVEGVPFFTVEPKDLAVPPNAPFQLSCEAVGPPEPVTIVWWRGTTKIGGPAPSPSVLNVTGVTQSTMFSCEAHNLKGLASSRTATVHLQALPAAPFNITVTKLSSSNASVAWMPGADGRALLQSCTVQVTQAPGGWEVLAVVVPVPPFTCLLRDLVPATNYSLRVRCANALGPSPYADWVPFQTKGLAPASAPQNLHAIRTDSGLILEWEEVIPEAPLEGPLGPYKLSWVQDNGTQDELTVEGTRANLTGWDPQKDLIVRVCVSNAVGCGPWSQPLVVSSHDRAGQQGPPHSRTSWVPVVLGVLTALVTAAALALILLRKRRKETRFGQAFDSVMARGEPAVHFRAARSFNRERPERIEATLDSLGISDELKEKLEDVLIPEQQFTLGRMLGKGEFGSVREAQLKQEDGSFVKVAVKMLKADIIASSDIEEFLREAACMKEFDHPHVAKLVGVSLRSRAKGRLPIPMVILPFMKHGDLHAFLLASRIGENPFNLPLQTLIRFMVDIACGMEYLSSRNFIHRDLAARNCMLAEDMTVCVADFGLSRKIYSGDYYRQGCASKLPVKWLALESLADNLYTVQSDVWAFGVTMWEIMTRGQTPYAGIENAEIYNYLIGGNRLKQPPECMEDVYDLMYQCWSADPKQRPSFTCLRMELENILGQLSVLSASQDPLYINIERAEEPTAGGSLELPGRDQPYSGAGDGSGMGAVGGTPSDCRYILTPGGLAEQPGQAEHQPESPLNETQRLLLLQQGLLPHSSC
- MEASUREMENT PROTOCOL: KINOMEscan competition binding
- PARTICULARS: compound 10.0 µM
MEASURE NAME: kinase still bound, per cent of control

[
  {
    "SMILES STRING": "COc1cc(N2CCN(C)CC2)ccc1Nc1ncc2c(n1)Nc1ccccc1NC2=O",
    "MEASURE NAME": "kinase still bound, per cent of control",
    "OBSERVED": "100%"
  },
  {
    "SMILES STRING": "COc1cc(N2CCC(O)CC2)ccc1Nc1ncc2c(n1)N1CCc3cccc(c31)C(=O)N2C",
    "MEASURE NAME": "kinase still bound, per cent of control",
    "OBSERVED": "100%"
  },
  {
    "SMILES STRING": "CN1CCN(c2ccc(C(=O)Nc3ncc4c(n3)N(C)c3ccccc3C(=O)N4C)cc2)CC1",
    "MEASURE NAME": "kinase still bound, per cent of control",
    "OBSERVED": "100%"
  }
]

Give kinase still bound, per cent of control only, for COc1cc(N2CCN(C)CC2)ccc1Nc1ncc2c(n1)N(C)c1sccc1C(=O)N2C , using TYRO3 (human) (UniProt Q06418) data.
76%

---

For each of the molecules below, state its kinase still bound, per cent of control.
- TESTED ON: AURKC (human) (UniProt Q9UQB9)
- Sequence (Q9UQB9 whole entry, looked up): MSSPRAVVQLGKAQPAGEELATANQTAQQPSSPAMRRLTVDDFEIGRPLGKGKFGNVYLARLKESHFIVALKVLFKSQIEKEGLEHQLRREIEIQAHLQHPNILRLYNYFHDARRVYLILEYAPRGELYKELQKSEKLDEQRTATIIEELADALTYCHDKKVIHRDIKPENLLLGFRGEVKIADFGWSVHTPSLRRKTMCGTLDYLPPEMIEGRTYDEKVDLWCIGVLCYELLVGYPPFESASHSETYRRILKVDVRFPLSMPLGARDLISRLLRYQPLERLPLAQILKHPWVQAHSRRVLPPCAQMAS
- MEASUREMENT PROTOCOL: KINOMEscan competition binding
- PARTICULARS: compound 10.0 µM
# include the unit after the value

[
  {
    "SMILES STRING": "Nc1cccc(-c2cc(/C=C3\\SC(=O)NC3=O)c[nH]c2=O)c1",
    "kinase still bound, per cent of control": "30%"
  },
  {
    "SMILES STRING": "CN1C(=O)c2ccccc2N(C)c2nc(NS(=O)(=O)c3ccc(N)cc3)ncc21",
    "kinase still bound, per cent of control": "74%"
  },
  {
    "SMILES STRING": "COc1cc(N2CCC(O)CC2)ccc1Nc1ncc2c(n1)N1CCc3cccc(c31)C(=O)N2C",
    "kinase still bound, per cent of control": "89%"
  },
  {
    "SMILES STRING": "CN1C(=O)[C@H]2CCC[C@H]2N(C2CCCC2)c2nc(Nc3ccc4ncccc4c3)ncc21",
    "kinase still bound, per cent of control": "4.6%"
  },
  {
    "SMILES STRING": "O=C1NC(=S)S/C1=C\\c1ccc(-c2cccc3ccccc23)o1",
    "kinase still bound, per cent of control": "27%"
  }
]

Provide the reported kinase still bound, per cent of control of each entry below, same order.
1. COc1cc(N2CCN(C)CC2)ccc1Nc1ncc2c(n1)N(C)c1sccc1C(=O)N2C
2. CS(=O)(=O)Nc1ccc(-c2cncc(/C=C3\SC(=N)NC3=O)c2)cc1
3. O=C1NC(=S)S/C1=C\c1ccc(-c2cncc3ccccc23)o1

1: 82%; 2: 16%; 3: 5.2%

---

- Tested on: EGFR (human), P00533 [A750P; 747-749 del]
- MEASUREMENT PROTOCOL: KINOMEscan competition binding
- PARTICULARS: compound 10.0 µM
Parameter class (string): assigned from measured kinase still bound, per cent of control. Ranges: bottom range (below 9%), center range (9% to below 60%), top range (60% or more)

Field: example entries. Status: answers known.
[
  {
    "MOLECULE": "COc1cc(N2CCN(C)CC2)ccc1Nc1ncc2c(n1)N(c1ccccc1)CCC(=O)N2",
    "LABEL": "bottom range"
  },
  {
    "MOLECULE": "COc1cc(N2CCC(N3CCN(C)CC3)CC2)ccc1Nc1ncc2c(n1)N(C1CCCC1)C(C)CC(=O)N2C (centres undefined)",
    "LABEL": "center range"
  },
  {
    "MOLECULE": "O=C1NC(=O)/C(=C/c2c[nH]c(=O)c(-c3ccc(N4CCNCC4)nc3)c2)S1",
    "LABEL": "center range"
  }
]

Given O=C1NC(=O)/C(=C/c2ccc(-c3ccc(F)cc3O)o2)S1 , name the class its kinase still bound, per cent of control places it in.
bottom range

Given COc1cc(N2CCN(C)CC2)ccc1Nc1ncc2c(n1)N(C)c1ccccc1N(C)C2=O , name the class its kinase still bound, per cent of control places it in.
center range

Given COc1cc(N2CCN(CCO)CC2)ccc1Nc1ncc2c(n1)N(C1CCCC1)CCC(=O)N2C , name the class its kinase still bound, per cent of control places it in.
center range

Given COc1cc(N2CCN(C)CC2)ccc1Nc1ncc2c(n1)N(C)c1sccc1C(=O)N2C , name the class its kinase still bound, per cent of control places it in.
top range

Given CN1C(=O)c2ccccc2N(C)c2nc(NS(=O)(=O)c3ccc(N)cc3)ncc21 , name the class its kinase still bound, per cent of control places it in.
top range

Given Nc1cccc(-c2cc(/C=C3\SC(=O)NC3=O)c[nH]c2=O)c1 , name the class its kinase still bound, per cent of control places it in.
center range

---

- TESTED ON: PIP5K1A (human)
- MEASUREMENT PROTOCOL: KINOMEscan competition binding
- PARTICULARS: compound 10.0 µM
Binary label based on kinase still bound, per cent of control with cut-off 20%: below gives 1 (yes), not below gives 0 (no).

Field: example entries. Status: answers known.
[
  {
    "SMILES STRING": "CSC1=NC(=O)/C(=C/c2c[nH]c(=O)c(-c3ccc(NS(C)(=O)=O)cc3)c2)S1",
    "TESTED ON": "PIP5K1A (human)",
    "LABEL": "0 (no)"
  },
  {
    "SMILES STRING": "CN1C(=O)[C@H]2CCC[C@H]2N(C2CCCC2)c2nc(Nc3ccc4ncccc4c3)ncc21",
    "TESTED ON": "PIP5K1A (human)",
    "LABEL": "1 (yes)"
  },
  {
    "SMILES STRING": "N=C1NC(=O)/C(=C/c2c[nH]c(=O)c(-c3ccc(N4CCNCC4)nc3)c2)S1",
    "TESTED ON": "PIP5K1A (human)",
    "LABEL": "1 (yes)"
  }
]

A record lists N=C1NC(=O)/C(=C/c2ccc(-c3cncc4ccccc34)o2)S1 . Is its kinase still bound, per cent of control below 20%?
1 (yes)

A record lists CN1CCN(c2ccc(C(=O)Nc3ncc4c(n3)N(C)c3ccccc3C(=O)N4C)cc2)CC1 . Is its kinase still bound, per cent of control below 20%?
0 (no)

---

- TESTED ON: SRPK2 (human) (UniProt P78362)
- Sequence (P78362 whole entry, looked up): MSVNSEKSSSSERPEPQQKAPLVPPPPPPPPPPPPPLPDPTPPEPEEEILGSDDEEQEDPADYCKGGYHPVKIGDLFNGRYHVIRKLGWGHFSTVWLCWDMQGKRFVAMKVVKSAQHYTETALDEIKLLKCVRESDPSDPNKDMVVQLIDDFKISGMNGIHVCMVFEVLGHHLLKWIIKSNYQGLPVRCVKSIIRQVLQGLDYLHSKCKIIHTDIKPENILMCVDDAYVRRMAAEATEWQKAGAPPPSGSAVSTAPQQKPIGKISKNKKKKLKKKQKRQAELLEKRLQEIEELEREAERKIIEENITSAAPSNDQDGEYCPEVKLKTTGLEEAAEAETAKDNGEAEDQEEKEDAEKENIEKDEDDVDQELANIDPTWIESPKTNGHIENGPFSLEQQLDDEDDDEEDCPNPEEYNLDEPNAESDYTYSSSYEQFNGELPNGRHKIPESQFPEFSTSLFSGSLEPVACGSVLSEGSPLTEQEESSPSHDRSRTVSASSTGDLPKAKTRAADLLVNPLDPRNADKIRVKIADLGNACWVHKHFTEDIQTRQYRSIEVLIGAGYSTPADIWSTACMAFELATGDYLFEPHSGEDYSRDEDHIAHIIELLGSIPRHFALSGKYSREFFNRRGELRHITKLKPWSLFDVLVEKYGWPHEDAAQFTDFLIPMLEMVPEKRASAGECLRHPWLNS
- MEASUREMENT PROTOCOL: KINOMEscan competition binding
- PARTICULARS: compound 10.0 µM
Binary label based on kinase still bound, per cent of control with cut-off 30%: below gives condition met, not below gives condition not met.

Field: example entries. Status: answers known.
[
  {
    "SMILES STRING": "N=C1NC(=O)/C(=C/c2ccc(-c3cncc4ccccc34)o2)S1",
    "TESTED ON": "SRPK2 (human) (UniProt P78362)",
    "LABEL": "condition met"
  },
  {
    "SMILES STRING": "CN1C(=O)c2ccccc2N(C)c2nc(NS(=O)(=O)c3ccc(N)cc3)ncc21",
    "TESTED ON": "SRPK2 (human) (UniProt P78362)",
    "LABEL": "condition not met"
  }
]

A record lists COc1cc(N2CCN(C)CC2)ccc1Nc1ncc2c(n1)N(C)c1sccc1C(=O)N2C . Is its kinase still bound, per cent of control below 30%?
condition not met

A record lists CS(=O)(=O)Nc1ccc(-c2cc(/C=C3\SC(=N)NC3=O)c[nH]c2=O)cc1 . Is its kinase still bound, per cent of control below 30%?
condition met

A record lists COc1cc(N2CCN(C)CC2)ccc1Nc1ncc2c(n1)N(C)c1ccccc1N(C)C2=O . Is its kinase still bound, per cent of control below 30%?
condition not met

A record lists O=C1NC(=S)S/C1=C\c1ccc(-c2cncc3ccccc23)o1 . Is its kinase still bound, per cent of control below 30%?
condition not met

A record lists COc1cc(N2CCC(O)CC2)ccc1Nc1ncc2c(n1)N1CCc3cccc(c31)C(=O)N2C . Is its kinase still bound, per cent of control below 30%?
condition not met

A record lists CSC1=NC(=O)/C(=C/c2c[nH]c(=O)c(-c3ccc(NS(C)(=O)=O)cc3)c2)S1 . Is its kinase still bound, per cent of control below 30%?
condition met

A record lists Nc1cccc(-c2cc(/C=C3\SC(=O)NC3=O)c[nH]c2=O)c1 . Is its kinase still bound, per cent of control below 30%?
condition met

A record lists O=C1NC(=O)/C(=C/c2c[nH]c(=O)c(-c3ccc(N4CCNCC4)nc3)c2)S1 . Is its kinase still bound, per cent of control below 30%?
condition met
